These data points were gathered from paper PMC9315372.

target: RcsB (Klebsiella pneumoniae, UniProt W1DMM9)
Sequence (W1DMM9 entry or part of it): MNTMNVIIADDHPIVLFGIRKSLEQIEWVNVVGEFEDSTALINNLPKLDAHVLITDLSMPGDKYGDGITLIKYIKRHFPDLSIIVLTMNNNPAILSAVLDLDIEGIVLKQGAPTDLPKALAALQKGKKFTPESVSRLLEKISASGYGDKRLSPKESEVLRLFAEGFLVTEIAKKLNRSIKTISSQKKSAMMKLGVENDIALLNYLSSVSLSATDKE
observation_type: Kd (µM)
Answer in µM, number only, no unit symbol.

Name the recorded Kd of `C=CCc1ccc(O)c(OC)c1` , assay system RcsB (Klebsiella pneumoniae, UniProt W1DMM9).
53.4
